- assayInfo: Thermodynamic (Equilibrium) solubility in selected buffer
- Assay type: physicochemical
- experimentalParameters: phosphate buffer 50 mM, aqueous buffer, thermodynamic from solid; pH 7.4; Table 24; read-out: Solubility (μg/mL) pH 7.4
assayMetric: solubility (µg/mL)

| compound | assayMetric | observedMeasurement |
| --- | --- | --- |
| O=C(COc1ccc(Cl)c(F)c1)N[C@H]1CC[C@H](c2nnc([C@H]3C[C@@H](OC(F)(F)F)C3)o2)NC1 | solubility | 63 |

a = O=C(COc1ccc(Cl)c(F)c1)N[C@@H]1CC[C@@H](c2nnc(COC(F)(F)F)o2)OC1 [WO201904 6779 Ex 30, reference compound]
b = O=C(COc1ccc(Cl)c(F)c1)N[C@H]1CC[C@H](c2nnc(COC(F)(F)F)o2)NC1
Request: Which shows the larger solubility value: a or b ? // return label of chosen record
Result: b
(b: 90 µg/mL, a: 3 µg/mL)

These entries and their values trace back to patent US12258338B2.
